src = patent US7906549B2

# assay-target: Human EDG-1 (Homo sapiens, UniProt P21453)
# Sequence (P21453 whole entry): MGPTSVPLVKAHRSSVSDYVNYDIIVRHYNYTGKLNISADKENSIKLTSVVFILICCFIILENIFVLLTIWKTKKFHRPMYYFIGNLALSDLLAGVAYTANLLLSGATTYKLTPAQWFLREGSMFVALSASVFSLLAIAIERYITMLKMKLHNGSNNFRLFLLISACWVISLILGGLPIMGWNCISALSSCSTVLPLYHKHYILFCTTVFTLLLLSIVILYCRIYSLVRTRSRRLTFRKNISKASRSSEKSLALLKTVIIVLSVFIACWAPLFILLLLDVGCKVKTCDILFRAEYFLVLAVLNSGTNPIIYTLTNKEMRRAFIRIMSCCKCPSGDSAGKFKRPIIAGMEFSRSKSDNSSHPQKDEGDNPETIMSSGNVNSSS
# assay-summary: Agonistic activity against EDG by monitoring changes in intracellular calcium ion [Ca^2+]i concentration
# experimental-context: Human EDG-1 overexpressing CHO cells; read-out: EC50 (increase in intracellular calcium ion concentration)
Where a name gives a salt, the structure may show the parent alone.
Listing of entries alongside the reported EC50.
// return numeric value only (unit: µM, not printed)

molecule	units-of-measure	EC50
CC(C)Cc1ccc(-c2nc(-c3ccc4c(c3)CCN(CCC(=O)O)C4)no2)cc1 [Example 13-4, trifluoroacetate]	µM	0.041
O=C(O)C1CN(CC2=C(Cl)c3ccc(OCCCC4CCCCC4)cc3CC2)C1	µM	0.0007
O=C(O)CCN1CCc2c([nH]c3cc(OCCCc4ccccc4)ccc23)C1 [Example 18, trifluoroacetate]	µM	0.662
CCCc1ccc(COc2ccc3c(c2)CCC(CN2CC(C(=O)O)C2)=C3C)c(OC)c1	µM	0.001

Look at this molecule and give its reported EC50. CCCc1ccc(COc2ccc3c(c2)CCC(CN2CC(C(=O)O)C2)=C3Cl)c(OC)c1
0.0007

Look at this molecule and give its reported EC50. O=C(O)CCN1CC=C(c2ccc(OCCCc3ccc(Cl)cc3)cc2)CC1 [Example 29-1, trifluoroacetate]
0.133
